target: Cytochrome P450 1A2 (Homo sapiens) (UniProt P05177); assay: Cytochrome panel assay with activity outcomes; conditions: recombinant CYP, pro-luciferin dealkylation, luminescence, p450-cyp1a2; series mostly up to 57.1 µM
Sequence (P05177 whole entry, looked up): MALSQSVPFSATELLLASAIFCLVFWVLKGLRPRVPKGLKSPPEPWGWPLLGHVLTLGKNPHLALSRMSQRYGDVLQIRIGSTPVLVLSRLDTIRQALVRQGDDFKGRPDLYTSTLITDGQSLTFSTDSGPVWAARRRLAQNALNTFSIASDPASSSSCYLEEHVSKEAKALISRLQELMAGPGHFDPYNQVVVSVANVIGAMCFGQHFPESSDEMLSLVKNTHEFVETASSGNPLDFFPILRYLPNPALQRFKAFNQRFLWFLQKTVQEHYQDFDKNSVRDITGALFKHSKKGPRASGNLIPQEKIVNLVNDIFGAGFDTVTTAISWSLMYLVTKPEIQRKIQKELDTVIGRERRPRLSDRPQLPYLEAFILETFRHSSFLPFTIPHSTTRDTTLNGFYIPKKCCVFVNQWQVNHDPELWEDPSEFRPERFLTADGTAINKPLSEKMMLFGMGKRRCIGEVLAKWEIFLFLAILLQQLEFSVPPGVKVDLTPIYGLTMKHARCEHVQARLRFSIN
The campaign covered roughly 16,000 compounds. About 5,700 (36%) were called active. Not shown: some 24% with an inconclusive outcome. The call rests on the fitted dose curve; in most records, active means well fitted curve in the direction sought with a large enough effect; inconclusive means small, poorly fitted or top-dose-only effect, or effect the other way; inactive means no such curve, though single readings can be large or run the other way. The list shows a part of the results.
Labels: active, inactive

• CCc1ccc(C(C(=O)NCc2ccc(OC)cc2)N(CCOC)C(=O)Cc2cccs2)cc1 (stereo not given) = inactive
• COc1ccc2nccc(C(=O)O)c2c1 = inactive
• COc1ccc2oc(C(=O)c3ccccc3)c(N)c2c1 = active
• CCCS(=O)(=O)N1CCCC(C(=O)NCCCN2CCN(c3ccccc3F)CC2)C1 (stereo not given) = inactive
• COc1ccc2cc3cc(C(=O)NCc4ccc5c(c4)OCO5)oc3nc2c1 = active
• COc1ccc(N2CCN(CCNC(=O)C3CCN(S(=O)(=O)c4cccs4)CC3)CC2)cc1 = inactive
• N#CC1=C(SCC(N)=O)NC2=C(C(=O)c3ccccc32)C1c1ccc(Cl)cc1 (stereo not given) = active
• O=C(Nc1ccc(-n2nncc2-c2ccco2)cc1)c1cc2ccccc2oc1=O = inactive
• Cc1ccc(-c2ccc(=O)n(CC(=O)NCCN3CCCCC3C)n2)cc1 (stereo not given) = inactive
• CSC1=C(C#N)C(c2ccccc2Cl)C2=C(N1)c1ccccc1C2=O (stereo not given) = active

// data source = PubChem BioAssay AID1851
